- assay: HILIC, Waters ACQUITY UPLC BEH Amide, 100 × 2.1 mm, 1.7 µm; A: water + 0.125% formic acid + 10 mM ammonium formate; B: 5% water + 95% acetonitrile + 0.125% formic acid + 10 mM ammonium formate; gradient (min/%B) 0/100 2/100 7.7/70 9.5/40 10.25/30 12.75/100 17/100
- condition.description: stereoisomer not certain
This section presents compounds with their documented LC retention time values.
measured.metric: LC retention time (min)

1. NC(N)=NCCCC(NC(=O)C(N)CCC(=O)O)C(=O)O (stereo not drawn) [Glu-Arg] ... 9.9
2. COc1c2occc2cc2ccc(=O)oc12 [Xanthotoxin] ... 1.04
3. CCCCCCCCCCCC(=O)OC(CC(=O)[O-])C[N+](C)(C)C [Lauroyl-L-carnitine] ... 3.63
